MIC values, listed per item
# Test system: K. pneumoniae strain 125 (MLST 307, ESBL)
# methodNotes: microbe, parasite or virus in culture
# Assay type: cell-based
# conditionDescription: Klebsiella pneumoniae
The answer is to be given in µg/mL; state only the numeric part.

| molSmiles | unitText | quantitativeReadout |
| --- | --- | --- |
| O=C(O)c1c(F)ccc2c1OB(O)[C@@H]1C[C@H]21 | µg/mL | 32 |

Entry CC(C)(O/N=C(\C(=O)N[C@@H]1C(=O)N2C(C(=O)[O-])=C(C[n+]3ccccc3)CS[C@H]12)c1csc(N)n1)C(=O)O — recorded MIC = 64

Entry C[C@@H](O)[C@H]1C(=O)N2C(C(=O)O)=C(SCCN=CN)C[C@H]12 — recorded MIC = 4

Entry CC1=C[C@@H]2CN(C(=O)N2OS(=O)(=O)O)[C@@H]1C(N)=O — recorded MIC = 2

Entry CC1(C)[C@H](C(=O)O)N2C(=O)C[C@H]2S1(=O)=O — recorded MIC = 64

====

MIC values, listed per item
# Tested on: E. coli HB4 ΔompC/F (CTX-M-14)
# methodNotes: microbe, parasite or virus in culture
# Assay type: cell-based, Escherichia coli
# conditionDescription: Escherichia coli
The answer is to be given in µg/mL; state only the numeric part.

| molecule | measuredTarget | assayReadout | quantitativeReadout |
| --- | --- | --- | --- |
| C[C@@H](O)[C@H]1C(=O)N2C(C(=O)O)=C(S[C@@H]3CN[C@H](C(=O)Nc4cccc(C(=O)O)c4)C3)[C@H](C)[C@H]12 [ERT, ertapenem] | E. coli HB4 ΔompC/F (CTX-M-14) | MIC | 0.5 |

Consider now this further molecule.
Entry CC(C)(O/N=C(\C(=O)N[C@@H]1C(=O)N2C(C(=O)[O-])=C(C[n+]3ccccc3)CS[C@H]12)c1csc(N)n1)C(=O)O [CAZ, ceftazidime] — recorded MIC = 16

====

# measuredTarget: UniProt:Q6XEC0
# Sequence (Q6XEC0 23-265 limits assumed): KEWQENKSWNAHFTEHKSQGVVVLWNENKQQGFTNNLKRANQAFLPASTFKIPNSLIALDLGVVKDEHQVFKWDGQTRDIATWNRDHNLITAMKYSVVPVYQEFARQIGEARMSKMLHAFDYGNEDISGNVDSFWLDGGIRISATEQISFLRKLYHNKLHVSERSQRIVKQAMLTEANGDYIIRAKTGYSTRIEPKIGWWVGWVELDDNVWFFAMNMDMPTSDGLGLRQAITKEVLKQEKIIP
# methodNotes: Steady-state inhibition constant (Ki app), nitrocefin reporter
# conditionDescription: nitrocefin 300 µM reporter, 25 °C, pH 7.4
pKi values, listed per item
// scale note: pKi = -log10(conc_M); give the bare number

| molSmiles | pKi |
| --- | --- |
| CC1=C[C@@H]2CN(C(=O)N2OS(=O)(=O)O)[C@@H]1C(N)=O | 6.99 |
| O=C(O)C[C@@H]1CC[C@H](NC(=O)Cc2cccs2)B(O)O1 | 4.36 |
| NCCN[C@H]1CC[C@H](CC(=O)N[C@H]2Cc3cccc(C(=O)O)c3OB2O)CC1 | 7.12 |

Entry O=C(O)c1c(F)ccc2c1OB(O)[C@@H]1C[C@H]21 — recorded pKi = 7.74

====

MIC values, listed per item
# Test system: K. pneumoniae strain 170 (MLST 307, No ESBL)
# methodNotes: microbe, parasite or virus in culture
# Assay type: cell-based
# conditionDescription: Klebsiella pneumoniae; K. pneumoniae 170; BL alone or BL/BLI: AVI, REL, TAN, DUR 4 mg/L, VAB, XER 8 mg/L, ZID, NAC 1:1; read-out: MIC
The answer is to be given in µg/mL; state only the numeric part.

| compound | assayReadout | quantitativeReadout |
| --- | --- | --- |
| CC1(C)[C@H](C(=O)O)N2C(=O)C[C@H]2S1(=O)=O | MIC | 64 |
| CO/N=C(\C(=O)N[C@@H]1C(=O)N2C(C(=O)[O-])=C(C[N+]3(C)CCCC3)CS[C@H]12)c1csc(N)n1 [FEP, cefepime] | MIC | 0.25 |
| C[C@@H](O)[C@H]1C(=O)N2C(C(=O)O)=C(SCCN=CN)C[C@H]12 | MIC | 4 |
| C[C@@H](O)[C@H]1C(=O)N2C(C(=O)O)=C(S[C@@H]3CN[C@H](C(=O)N(C)C)C3)[C@H](C)[C@H]12 | MIC | 1 |

Entry CC(C)(O/N=C(\C(=O)N[C@@H]1C(=O)N2C(C(=O)[O-])=C(C[n+]3ccccc3)CS[C@H]12)c1csc(N)n1)C(=O)O — recorded MIC = 0.5

====

# System: E. coli strain 103 (MLST 10, ESBL)
# methodNotes: microbe, parasite or virus in culture
# Assay type: cell-based
# conditionDescription: Escherichia coli
MIC values, listed per item

Previously resolved entries follow.
| molSmiles | MIC |
| --- | --- |
| C[C@@H](O)[C@H]1C(=O)N2C(C(=O)O)=C(SCCN=CN)C[C@H]12 | 2 µg/mL |
| C[C@@H](O)[C@H]1C(=O)N2C(C(=O)O)=C(S[C@@H]3CN[C@H](C(=O)N(C)C)C3)[C@H](C)[C@H]12 | 0.25 µg/mL |
| O=C(NC1CCNCC1)[C@@H]1CC[C@@H]2CN1C(=O)N2OS(=O)(=O)O | ≥ 128 µg/mL |
| CC1=C[C@@H]2CN(C(=O)N2OS(=O)(=O)O)[C@@H]1C(N)=O | 0.25 µg/mL |

Entry CC(C)(O/N=C(\C(=O)N[C@@H]1C(=O)N2C(C(=O)[O-])=C(C[n+]3ccccc3)CS[C@H]12)c1csc(N)n1)C(=O)O — recorded MIC = 4 µg/mL

Entry NCCN[C@H]1CC[C@H](CC(=O)N[C@H]2Cc3cccc(C(=O)O)c3OB2O)CC1 — recorded MIC = ≥ 128 µg/mL

====

# Tested on: K. pneumoniae strain 237 (MLST 147, No ESBL)
# methodNotes: microbe, parasite or virus in culture
# Format: cell-based
# conditionDescription: Klebsiella pneumoniae; K. pneumoniae 237; β-lactamase inhibitor alone; read-out: MIC
# Description: The efficacy of these new BLIs was also evaluated against 18 genetically diverse WGS-characterized collection of OXA-48-positive Enterobacterales recovered as part of the Carbapenem-resistant Enterobacterales Genome Database Project (https://genomes.cnag.cat/incredble) listed in Table S2 ([13]). […] The MICs of each of the individual compounds (antibiotics or inhibitors) were also determined. […]
MIC values, listed per item
The answer is to be given in µg/mL; state only the numeric part.

Previously resolved entries follow.
| molSmiles | measuredTarget | MIC / µg/mL |
| --- | --- | --- |
| NC(=O)[C@@H]1CC[C@@H]2CN1C(=O)N2OS(=O)(=O)O | K. pneumoniae strain 237 (MLST 147, No ESBL) | 64 |
| O=C(NNC(=O)[C@@H]1CC[C@@H]2CN1C(=O)N2OS(=O)(=O)O)[C@@H]1CCCNC1 | K. pneumoniae strain 237 (MLST 147, No ESBL) | 0.5 |
| CC1=C[C@@H]2CN(C(=O)N2OS(=O)(=O)O)[C@@H]1C(N)=O | K. pneumoniae strain 237 (MLST 147, No ESBL) | 0.5 |
| O=C(O)c1c(F)ccc2c1OB(O)[C@@H]1C[C@H]21 | K. pneumoniae strain 237 (MLST 147, No ESBL) | 64 |

Consider now this further compound.
Entry NCCONC(=O)[C@@H]1CC[C@@H]2CN1C(=O)N2OS(=O)(=O)O — recorded MIC = 1

====

MIC values, listed per item
# Test system: K. pneumoniae strain 19 (MLST 11, ESBL)
# methodNotes: microbe, parasite or virus in culture
# Type: cell-based
# conditionDescription: Klebsiella pneumoniae
# Experimental: The efficacy of these new BLIs was also evaluated against 18 genetically diverse WGS-characterized collection of OXA-48-positive Enterobacterales recovered as part of the Carbapenem-resistant Enterobacterales Genome Database Project (https://genomes.cnag.cat/incredble) listed in Table S2 ([13]). […] The MICs of each of the individual compounds (antibiotics or inhibitors) were also determined. […]
The answer is to be given in µg/mL; state only the numeric part.

Previously resolved entries follow.
| molSmiles | quantitativeReadout |
| --- | --- |
| CC(C)(O/N=C(\C(=O)N[C@@H]1C(=O)N2C(C(=O)[O-])=C(C[n+]3ccccc3)CS[C@H]12)c1csc(N)n1)C(=O)O | 32 |
| C[C@@H](O)[C@H]1C(=O)N2C(C(=O)O)=C(S[C@@H]3CN[C@H](C(=O)Nc4cccc(C(=O)O)c4)C3)[C@H](C)[C@H]12 | 4 |
| O=C(O)c1c(F)ccc2c1OB(O)[C@@H]1C[C@H]21 | 32 |

Considering C[C@@H](O)[C@H]1C(=O)N2C(C(=O)O)=C(S[C@@H]3CN[C@H](C(=O)N(C)C)C3)[C@H](C)[C@H]12 , its MIC with K. pneumoniae strain 19 (MLST 11, ESBL) was recorded as 1

====

# System: E. coli HB4 ΔompC/F (CTX-M-14)
# methodNotes: microbe, parasite or virus in culture
# Assay type: cell-based, Escherichia coli
# conditionDescription: Escherichia coli
assayReadout: MIC (µg/mL)
The answer is to be given in µg/mL; state only the numeric part.

| compound | MIC [µg/mL] |
| --- | --- |
| CC1(C)[C@H](C(=O)O)N2C(=O)C[C@H]2S1(=O)=O [SUL, sulbactam] | 32 |

Entry C[C@@H](O)[C@H]1C(=O)N2C(C(=O)O)=C(S[C@@H]3CN[C@H](C(=O)N(C)C)C3)[C@H](C)[C@H]12 [MER, meropenem] — recorded MIC = 0.5

Entry CC1=C[C@@H]2CN(C(=O)N2OS(=O)(=O)O)[C@@H]1C(N)=O [Durlobactam, durlobactam] — recorded MIC = 1

Entry NC(=O)[C@@H]1CC[C@@H]2CN1C(=O)N2OS(=O)(=O)O [Avibactam, avibactam] — recorded MIC = 16

Values were extracted from paper PMC11823609.
